Data credit: paper PMC7111628

- Test system: HSV-1 (F strain)
- assay-overview: CPE inhibition assay, HSV-1
- assay-setup: Human alphaherpesvirus 1, HEp-2, 24 h, read-out: HSV-1 IC50
value-kind: pIC50
Reminder that pIC50 means the negative base-10 logarithm of the concentration expressed in mol/L.

Input line: Can you look up pIC50 on HSV-1 (F strain) for Nc1nc2c(ncn2COCCO)c(=O)[nH]1 [Acyclovir] ?
Output line: 4.71

* * *

- Test system: HSV-2 (333 strain)
- assay-overview: CPE inhibition assay, HSV-2
- assay-setup: Human alphaherpesvirus 2, HeLa, 24 h, read-out: HSV-2 IC50
value-kind: IC50 (µM)
Express the result in µM but write the number alone.

Input line: Quick check: IC50 of "Nc1nc2c(ncn2COCCO)c(=O)[nH]1" ?
Output line: 21.9
